Hello, the source for this data is patent US20240327502A1, in case you need it.

TEST TARGET: T1, Processed stabilized hMPV PreF trimer (115BV) (human metapneumovirus, strain B2)
T1 construct: also called Processed hMPV PreF trimer; processed PreF
METHOD NOTES: BLI, mAb on anti-human Fc sensor

{"columns": ["BINDER", "Octet binding response / nm"],
 "data": [
  ["M2D01 (antibody, V domains shown, IgG) VH: QVQLQESGPGVVKPSETLSLTCTVSRGAITDYHLNWIRQPPGKGLEWIGYISSSGSTNYNPSLKSRVTISQVMSGTQFSLKLTSMSAADTALYYCASSSGRYWGGALDLWGQGTQVIVSS VL: DIVMTQSPDSLAVPLGERATINCKSSQSLLYTSNNKNSLAWYQQKPGQPPKLLLFWASTREFRVPDRFSGSGSGTDFTLTISSLQAEDVAVYYCQQYYTAPYTFGPGTKLEIK", 0.0622],
  ["M3A07 (antibody, V domains shown, IgG) VH: QVQLVQSGAEVQKPGASVKVSCKASGYTFTRHAIHWVRQAPGQRLEWIGWVHGGNENTKYSQKLQGRVTITRDTSASTAYMELNSLRYEDTAVYYCATAMPGAFNMWGQGTVVTVSS VL: DIQMTQSPSTLSASVGDRVTITCRASQSISSWVAWYQQKPGKAPKLLIYKAFSLETGVPSRFSGSGSGTEFTLTISSLQPDDCATYYCQQYGSFSEFTFGQGTKLEIK", 0.0536],
  ["M1A11 (antibody, V domains shown, IgG; also called MIA11) VH: QLQLQESGPGLVKPSETLSLTCTVSGDSISSSSFYWGWIRQPPGKGLEWIATIYYTGSTEYNPSLKSRISISVDTSMNQFSLRLRSVTAADTAVYYCARQEGSSWSNWFDPWGQGTLVTVSS VL: DIQMTQSPSSLSASVGDRVTITCRASQSISTYLNWYQQKPGKAPKLLIYVASSLQSGVPSRFSGSGSGTDFTLTISSLQPEDFATYYCQQGYSIPWTFGHGTKVEIK", 0.0515]
]}
